Measured pKd values are reported for all entries that follow.
system name: T1, NFS1-ISD11-ACP-ISCU complex with biotinylated ISCU (SDAUb) (human | E. coli, UniProt Q9Y697 56-457; Q9HD34 1-91; P0A6A8 1-74; Q9H1K1 35-167, pyridoxal 5′-phosphate covalently-linked to Lys258 | 4′-phosphopantetheine (4′-PP) acyl-chain attached to Ser37 | biotin (site and method not stated))
T1 construct: NFS1 cysteine desulfurase, human, Δ1-55; C-terminal residue printed as His457; ISD11/LYRM4, human; E. coli acyl carrier protein (ACPec), endogenous in the expression host, co-purified; ISCU scaffold protein, human, isoform 1, Δ1-34; the related SDAUF complex holds two copies of each chain; source: purified SDA (E. coli) combined with biotinylated ISCU (E. coli) and isolated on Superdex 200 …
T1 sequence (Q9Y697 56-457, chain 1 of 4): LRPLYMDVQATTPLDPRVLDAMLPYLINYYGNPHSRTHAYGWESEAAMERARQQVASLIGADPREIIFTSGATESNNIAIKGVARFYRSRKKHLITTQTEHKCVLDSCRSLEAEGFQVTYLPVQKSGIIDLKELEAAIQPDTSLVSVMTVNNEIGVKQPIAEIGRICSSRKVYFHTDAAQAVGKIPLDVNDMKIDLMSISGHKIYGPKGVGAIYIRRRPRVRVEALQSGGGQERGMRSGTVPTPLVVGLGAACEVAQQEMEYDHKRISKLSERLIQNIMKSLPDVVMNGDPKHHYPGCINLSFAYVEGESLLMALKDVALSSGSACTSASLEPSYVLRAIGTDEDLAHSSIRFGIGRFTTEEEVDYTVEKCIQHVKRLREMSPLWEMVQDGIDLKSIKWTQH
T1 sequence (Q9HD34 whole entry, chain 2 of 4, canonical isoform): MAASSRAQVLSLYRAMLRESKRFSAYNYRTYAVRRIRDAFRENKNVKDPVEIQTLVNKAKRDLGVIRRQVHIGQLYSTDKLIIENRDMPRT
T1 sequence (P0A6A8 1-74, chain 3 of 4): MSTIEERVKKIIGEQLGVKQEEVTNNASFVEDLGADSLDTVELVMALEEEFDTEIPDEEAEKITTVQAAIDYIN
T1 sequence (Q9H1K1 35-167, chain 4 of 4): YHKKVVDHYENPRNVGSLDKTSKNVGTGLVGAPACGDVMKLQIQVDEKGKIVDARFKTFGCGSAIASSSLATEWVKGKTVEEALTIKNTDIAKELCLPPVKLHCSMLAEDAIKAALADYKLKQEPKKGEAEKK
assay protocol: BLI; SDAUb complex (biotinylated ISCU) at 0.1 mg/mL loaded on streptavidin sensors; FXN 500 µM to 1 nM in solution; 25 °C; 50 mM HEPES pH 7.5, 200 mM NaCl, 5% glycerol, 2 mM TCEP, 5 mM DTT, 0.5 mg/mL BSA; Kd from response vs. [FXN], one site-specific binding fit
condition details: both partners purified
Worth noting: pKd values are minus log10 of concentrations stated in mol/L.

Worked cases, answers included:
>>> result_number("FXN(D124A) (domain or fragment, human, UniProt Q16595 81-210, looked up, frataxin (FXN), human, Δ1-80, site-directed variant; Variant of m1) SGTLGHPGSLDETTYERLAEETLDSLAEFFEDLADKPYTFEDYAVSFGSGVLTVKLGGDLGTYVINKQTPNKQIWLSSPSSGPKRYDWTGKNWVYSHDGVSLHELLAAELTKALKTKLDLSSLAYSGKDA")
4.84
>>> result_number("FXN(R165C) (domain or fragment, human, UniProt Q16595 81-210, looked up, frataxin (FXN), human, Δ1-80, clinical variant of Friedreich's ataxia; Variant of m1) SGTLGHPGSLDETTYERLAEETLDSLAEFFEDLADKPYTFEDYDVSFGSGVLTVKLGGDLGTYVINKQTPNKQIWLSSPSSGPKCYDWTGKNWVYSHDGVSLHELLAAELTKALKTKLDLSSLAYSGKDA")
3.87
>>> result_number("human frataxin (FXN) (Δ1-80), wild-type (domain or fragment, UniProt Q16595 81-210, looked up, frataxin (FXN), human, Δ1-80; Cloned into pCDF-LIC-Bsa4; Two copies of FXN stand in the SDAUF heterodecamer; also called FXN(WT); WT; source: E. coli BL21(DE3)-R3-pRARE2, purified (Ni Sepharose, Superdex S75, TEV, reverse Ni); for cryo-EM co-expressed with the His-ISD11/NFS1/ISCU plasmid and purified as the SDAUF complex) SGTLGHPGSLDETTYERLAEETLDSLAEFFEDLADKPYTFEDYDVSFGSGVLTVKLGGDLGTYVINKQTPNKQIWLSSPSSGPKRYDWTGKNWVYSHDGVSLHELLAAELTKALKTKLDLSSLAYSGKDA")
5.48

# input Requested field: pKd. Item: FXN(W155R) (domain or fragment, human, UniProt Q16595 81-210, looked up, frataxin (FXN), human, Δ1-80, clinical variant of Friedreich's ataxia; Variant of m1) SGTLGHPGSLDETTYERLAEETLDSLAEFFEDLADKPYTFEDYDVSFGSGVLTVKLGGDLGTYVINKQTPNKQIRLSSPSSGPKRYDWTGKNWVYSHDGVSLHELLAAELTKALKTKLDLSSLAYSGKDA
# output 3.60

# input Requested field: pKd. Item: FXN(N146K) (domain or fragment, human, UniProt Q16595 81-210, looked up, frataxin (FXN), human, Δ1-80, clinical variant of Friedreich's ataxia; Variant of m1) SGTLGHPGSLDETTYERLAEETLDSLAEFFEDLADKPYTFEDYDVSFGSGVLTVKLGGDLGTYVIKKQTPNKQIWLSSPSSGPKRYDWTGKNWVYSHDGVSLHELLAAELTKALKTKLDLSSLAYSGKDA
# output 3.75

# input Requested field: pKd. Item: FXN(P163G) (domain or fragment, human, UniProt Q16595 81-210, looked up, frataxin (FXN), human, Δ1-80, site-directed variant (Gly is the bacterial equivalent residue); Variant of m1) SGTLGHPGSLDETTYERLAEETLDSLAEFFEDLADKPYTFEDYDVSFGSGVLTVKLGGDLGTYVINKQTPNKQIWLSSPSSGGKRYDWTGKNWVYSHDGVSLHELLAAELTKALKTKLDLSSLAYSGKDA
# output 4.42

# input Requested field: pKd. Item: FXN(N151A) (domain or fragment, human, UniProt Q16595 81-210, looked up, frataxin (FXN), human, Δ1-80, site-directed variant; Variant of m1) SGTLGHPGSLDETTYERLAEETLDSLAEFFEDLADKPYTFEDYDVSFGSGVLTVKLGGDLGTYVINKQTPAKQIWLSSPSSGPKRYDWTGKNWVYSHDGVSLHELLAAELTKALKTKLDLSSLAYSGKDA
# output 5.02
